Assay: chemical genetic growth profiling, strain panel (AID 1159580);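 note: tested at 20 µM; growth read once vehicle control cultures reached saturation at 30 °C; 1 = growth at the plate median or of vehicle wells; lower values mean less growth of the strain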
Conditions: S. cerevisiae deletion strains, growth OD, locus YMR307W, strain GAS1
About 2,000 (36%) of roughly 5,500 compounds were called active. Inconclusive results (about 18%) are left out. Cut-off read from the data, not from the text of the source: active = normalized growth mostly below about 0.91 (no sharp cut-off); inconclusive = no clear call, values can overlap the other calls; inactive = mostly above about 0.92. The list shows a part of the results.
Write down the outcome that applies. Available outcomes: Yes = active, No = inactive

Example entries begin here.
CNC(=S)N/N=C\c1cc(Br)cc(Br)c1O | Yes
O=C(CCCN1CCC(O)(c2cccc(C(F)(F)F)c2)CC1)c1ccc(F)cc1 | Yes
Cc1c(OCC(F)(F)F)ccnc1CS(=O)c1nc2ccccc2[nH]1 (stereo unspecified) | No

Q. Tell me the recorded outcome of this test for `CC(=O)O[C@]1(C(C)=O)CC[C@H]2[C@@H]3C=C(Cl)C4=CC(=O)[C@@H]5C[C@@H]5[C@]4(C)[C@H]3CC[C@@]21C` .
A. No

Q. Tell me the recorded outcome of this test for O=C(O)C1CC(=O)N(Cc2ccccc2Cl)C1 (stereo unspecified) .
A. No

Q. Tell me the recorded outcome of this test for `NC(N)=NC(N)=Nc1cc(Cl)cc(Cl)c1` .
A. No

----------
Experiment: chemical genetic growth profiling, strain panel (AID 1159580)
Conditions: S. cerevisiae deletion strains, growth OD, locus YMR307W, strain GAS1, hits give low values
In all, about 5,500 compounds went through this assay and about 2,000 (36%) were called active. Inconclusive results (about 18%) are left out. This is one part of the list.
# normalized growth listing for each entry below
// return just the number, without any unit appended

Cc1ccc(S(=O)(=O)N2CCC(N)=N2)cc1 | 0.997
NCCCN | 1.1

Q. Read the entry NC(=O)c1ccc(OCC(O)CN2CC=C(c3ccc(F)cc3)CC2)cc1 (configuration not stated) and write its reported normalized growth.
A. 0.998

Q. Read the entry `CC(=O)O[C@@H]1c2c(ccc3ccc(=O)oc23)OC(C)(C)[C@@H]1OC(=O)CC(C)C` and write its reported normalized growth.
A. 0.848

Q. Read the entry CC1Cc2ccccc2N1NC(=O)c1ccc(Cl)c(S(N)(=O)=O)c1 (configuration not stated) and write its reported normalized growth.
A. 1.04

Q. Read the entry `O=C(O)c1ccccc1O` and write its reported normalized growth.
A. 0.965

Q. Read the entry `C/C=C(/C)C(=O)O[C@@H]1Cc2c(ccc3ccc(=O)oc23)OC1(C)C` and write its reported normalized growth.
A. 0.716

Q. Read the entry `NC(=O)c1ccccc1O` and write its reported normalized growth.
A. 1.03

Q. Read the entry `C/C=C(\C)C(=O)O[C@@H]1c2c(ccc3ccc(=O)oc23)OC(C)(C)[C@@H]1OC(C)=O` and write its reported normalized growth.
A. 0.929

Q. Read the entry `CN(C)CC[C@H](c1ccc(Cl)cc1)c1ccccn1` and write its reported normalized growth.
A. 0.99

Q. Read the entry CC1=C2C(O)C(=O)OC3CC4C(C)(C)C(=O)C=C[C@]4(C)C(CC1)[C@]23C (some centres not stated) and write its reported normalized growth.
A. 1.03

Q. Read the entry `CCCN(CCC)C(=O)Cc1c(-c2ccc(Cl)cc2)nc2c(Cl)cc(Cl)cn12` and write its reported normalized growth.
A. 1

----------
Assay: chemical genetic growth profiling, strain panel (AID 1159580);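 note: tested at 20 µM; growth read once vehicle control cultures reached saturation at 30 °C; 1 = growth at the plate median or of vehicle wells; lower values mean less growth of the strain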
Conditions: S. cerevisiae deletion strains, growth OD, locus YML124C, strain tub3
Hit rate of the full screen: of about 5,500 compounds, about 2,000 (36%) were called active. Inconclusive results (about 18%) are left out. Cut-off read from the data, not from the text of the source: active = normalized growth mostly below about 0.91 (no sharp cut-off); inconclusive = no clear call, values can overlap the other calls; inactive = mostly above about 0.92. The list shows a part of the results.
Write down the outcome that applies. Available outcomes: active, inactive

Example entries begin here.
CC1Cc2ccccc2N1NC(=O)c1ccc(Cl)c(S(N)(=O)=O)c1 (configuration not stated) | inactive
CC(=O)O[C@@H]1CC2C(C)(C)CCC[C@]2(C)C2CC[C@]3(C)C(=CC(=O)O[C@H]3c3ccoc3)[C@@]21C (some centres not stated) | inactive

Q. Tell me the recorded outcome of this test for `COc1cc(C(=O)N2CCOCC2)cc(OC)c1OC` .
A. active

Q. Tell me the recorded outcome of this test for CC[C@H]1CN2CCC1C[C@@H]2[C@@H](O)c1ccnc2ccc(OC)cc12 (some centres not stated) .
A. inactive

Q. Tell me the recorded outcome of this test for CC1(C)S[C@@H]2[C@H](NC(=O)C(C(=O)O)c3ccccc3)C(=O)N2[C@H]1C(=O)O (some centres not stated) .
A. inactive

Q. Tell me the recorded outcome of this test for O=c1c(O)cccc2c(C3Oc4cc(O)cc(O)c4CC3O)cc(O)c(O)c12 (configuration not stated) .
A. active

Q. Tell me the recorded outcome of this test for `COc1cccc2c1CCC1=CC(=O)CC[C@@]12C` .
A. inactive

Q. Tell me the recorded outcome of this test for CO[C@@H]1C[C@H](O[C@H]2CC[C@]3(C)C4CC[C@]5(C)[C@@H](C6=CC(=O)OC6)CC[C@]5(O)[C@@H]4CC[C@]3(O)C2)O[C@H](C)[C@@H]1O (some centres not stated) .
A. inactive

Q. Tell me the recorded outcome of this test for C[C@@H]1CCC2[C@](C)(CO)[C@@H](O)CC[C@]2(C)[C@@]12CC[C@@](CO)(CCO)O2 (some centres not stated) .
A. inactive

Q. Tell me the recorded outcome of this test for `CC[C@@]1(O)C(=O)OCc2c1cc1n(c2=O)Cc2cc3ccccc3nc2-1` .
A. active

----------
Test: chemical genetic growth profiling, strain panel (AID 1159580);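 note: tested at 20 µM; growth read once vehicle control cultures reached saturation at 30 °C; 1 = growth at the plate median or of vehicle wells; lower values mean less growth of the strain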
Details: S. cerevisiae deletion strains, growth OD, locus YGR229C, strain SMI1, hits give low values
Hit rate of the full screen: of about 5,500 compounds, about 2,000 (36%) were called active. Roughly 18% stayed inconclusive and do not appear here. The list shows a part of the results.
# normalized growth listing for each entry below
// return just the number, without any unit appended

Look over these answered cases.
O=C(O)CN(CCN(CC(=O)O)CC(=O)O)CC(=O)O | 0.774
CO[C@@H]1[C@@H](OC(N)=O)[C@@H](O)[C@H](Oc2ccc3c(O)c(NC(=O)c4ccc(O)c(CC=C(C)C)c4)c(=O)oc3c2C)OC1(C)C | 1.01

Q. Read the entry `CC(=O)C1=C(C)Nc2ccccc2S1` and write its reported normalized growth.
A. 1.02

Q. Read the entry `CC(=O)c1ccccc1OC(=O)c1c(-c2c(Cl)cccc2Cl)noc1C` and write its reported normalized growth.
A. 0.998

Q. Read the entry C[C@@H]1CC[C@@]23CCC4(C)[C@@](C=CC5[C@@]6(C)CC[C@H](O)C(C)(C)C6CC[C@]54C)(OC2=O)C3[C@H]1C (stereo partly specified) and write its reported normalized growth.
A. 1.08

Q. Read the entry Cc1ccc(OCC(O)C(C)NC(C)C)c2c1CCC2 (stereo unspecified) and write its reported normalized growth.
A. 1.01

Q. Read the entry `NCCCP(=O)(O)O` and write its reported normalized growth.
A. 0.984

Q. Read the entry `Nc1nc(/C(=C/CC(=O)O)C(=O)N[C@@H]2C(=O)N3C(C(=O)O)=CCS[C@H]23)cs1` and write its reported normalized growth.
A. 0.935

Q. Read the entry `COc1cc(C)c2c(=O)c3c(O)cc(OC)cc3oc2c1` and write its reported normalized growth.
A. 0.996

Q. Read the entry OCC(O)Cn1c2ccccc2c2ccccc21 (stereo unspecified) and write its reported normalized growth.
A. 0.994

Q. Read the entry `COc1cc(O)c2c(=O)cc(-c3ccc(OC)c(-c4c(O)cc(O)c5c(=O)cc(-c6ccc(O)cc6)oc45)c3)oc2c1` and write its reported normalized growth.
A. 0.92

----------
Experiment: chemical genetic growth profiling, strain panel (AID 1159580);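 note: tested at 20 µM; growth read once vehicle control cultures reached saturation at 30 °C; 1 = growth at the plate median or of vehicle wells; lower values mean less growth of the strain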
Details: S. cerevisiae deletion strains, growth OD, locus YDL028C, strain MPS1, hits give low values
Hit rate of the full screen: of about 5,500 compounds, about 2,000 (36%) were called active. Not shown: some 18% with an inconclusive outcome. The list shows a part of the results.
# normalized growth listing for each entry below
// return just the number, without any unit appended

O=C(O/N=C1/CCCc2[nH]c3ccccc3c21)c1ccc(Cl)cc1Cl | 0.972
O=C(OCc1ccccc1Br)c1cc([N+](=O)[O-])cc([N+](=O)[O-])c1 | 0.981
O=C(O/N=C1/CCCc2[nH]c3ccccc3c21)C1CCCCC1 | 0.962
FC(F)(F)Sc1ccc(OCc2n[nH]c(=S)n2-c2ccccc2)cc1 | 0.986
COc1ccc(N=C2SCC(c3ccc(C)cc3)=NN2CCO)cc1 | 0.971
O=C(NNc1cc(C(F)(F)F)cc(C(F)(F)F)c1)c1cnc2n(c1=O)CCS2 | 0.991
O=c1cc(CSc2ccc(Cl)cc2)c2ccc(O)cc2o1 | 0.956
Cc1cc(-c2onc(C)c2C(=O)Sc2ccccc2)no1 | 0.958
O=C(Nc1cc2ccccc2s1)N1CCN(Cc2c(F)cccc2Cl)CC1 | 0.988

Next, consider the following compound.
Q. Read the entry `N/C(=N/OC(=O)Nc1cccc(C(F)(F)F)c1)c1ccc(OC(F)(F)F)cc1` and write its reported normalized growth.
A. 0.972
